In this section, each of the molecules is paired with its reported normalised viability.
Test system: BT-474
Assay: normalised viability (% of control), CellTiter-Blue; higher = more viable cells (about 100 = DMSO control)
Conditions: 1000 nM; incubation time: 72 h
Write it as a number; the unit % goes unstated.

Examples from the recorded data:
Ask: Hello, please tell me recorded normalised viability for this one: C[C@]1(c2nc3c(C(N)=O)cccc3[nH]2)CCCN1
Result: 103

Ask: Hello, please tell me recorded normalised viability for this one: Clc1ccc(C(c2ccccc2Cl)C(Cl)Cl)cc1 (centres undefined)
Result: 108

Ask: Hello, please tell me recorded normalised viability for this one: Nc1nc(Cl)nc2c1ncn2[C@H]1C[C@H](O)[C@@H](CO)O1
Result: 103

Please find the next molecule below.
Ask: Hello, please tell me recorded normalised viability for this one: S=c1[nH]cnc2nc[nH]c12
Result: 108

* * *

Test system: MDA-MB-436
Experiment: normalised response (% of control), CellTox Green; higher = less cell death (100 = DMSO, 0 = benzethonium chloride kill control)
Conditions: incubation time: 72 h
measurement_type: normalised response (%)
Write it as a number; the unit % goes unstated.

Examples from the recorded data:
Ask: Hello, please tell me recorded normalised response for this one: CC[C@]1(O)C[C@@H]2CN(CCc3c([nH]c4ccccc34)[C@@](C(=O)OC)(c3cc4c(cc3OC)N(C)[C@H]3[C@@](O)(C(=O)OC)[C@H](OC(C)=O)[C@]5(CC)C=CCN6CC[C@]43[C@@H]65)C2)C1 [Vinblastine] (100 nM)
Result: 88.4

Ask: Hello, please tell me recorded normalised response for this one: COc1cccc2c1C(=O)c1c(O)c3c(c(O)c1C2=O)C[C@@](O)(C(=O)CO)C[C@@H]3O[C@H]1C[C@H](N)[C@H](O)[C@H](C)O1 [Doxorubicin] (1000 nM)
Result: 126

Ask: Hello, please tell me recorded normalised response for this one: O=C(c1ccc(C(=O)N2CCC(N3CCCC3)CC2)c(Nc2ccccc2)c1)N1CCC(N2CCCC2)CC1 [UNC1215] (3000 nM)
Result: 96.3

Next:
Ask: Hello, please tell me recorded normalised response for this one: COc1cccc2c1C(=O)c1c(O)c3c(c(O)c1C2=O)C[C@@](O)(C(=O)CO)C[C@@H]3O[C@H]1C[C@H](N)[C@H](O)[C@H](C)O1 [Doxorubicin] (10 nM)
Result: 94.8

Ask: Hello, please tell me recorded normalised response for this one: O=C(c1ccc(C(=O)N2CCC(N3CCCC3)CC2)c(Nc2ccccc2)c1)N1CCC(N2CCCC2)CC1 [UNC1215] (300 nM)
Result: 65.3

* * *

Test system: DU-4475
Test: normalised viability (% of control), CellTiter-Blue; higher = more viable cells (100 = DMSO, 0 = benzethonium chloride kill control)
Conditions: incubation time: 72 h
In this section, each of the compounds is paired with its reported normalised viability.
Write it as a number; the unit % goes unstated.

Ask: Hello, please tell me recorded normalised viability for this one: Clc1ccc(C(c2ccccc2Cl)C(Cl)Cl)cc1 (stereo not given) [Mitotane] (1 nM)
Result: 104

Next:
Ask: Hello, please tell me recorded normalised viability for this one: COc1cccc2cc(-c3nc([C@H]4CC[C@H](C(=O)O)CC4)n4ncnc(N)c34)[nH]c12 [OSI-027] (1 nM)
Result: 87.8

Ask: Hello, please tell me recorded normalised viability for this one: Cc1c2oc3c(C)ccc(C(=O)N[C@@H]4C(=O)N[C@H](C(C)C)C(=O)N5CCC[C@H]5C(=O)N(C)CC(=O)N(C)[C@@H](C(C)C)C(=O)O[C@@H]4C)c3nc-2c(C(=O)N[C@@H]2C(=O)N[C@H](C(C)C)C(=O)N3CCC[C@H]3C(=O)N(C)CC(=O)N(C)[C@@H](C(C)C)C(=O)O[C@@H]2C)c(N)c1=O [Dactinomycin] (0.1 nM)
Result: 90.5

Ask: Hello, please tell me recorded normalised viability for this one: C[C@]1(c2nc3c(C(N)=O)cccc3[nH]2)CCCN1 [Veliparib] (1 nM)
Result: 99

Ask: Hello, please tell me recorded normalised viability for this one: Nc1nc(Cl)nc2c1ncn2[C@H]1C[C@H](O)[C@@H](CO)O1 [Cladribine] (0.1 nM)
Result: 99.2

* * *

Tested on: MDA-MB-453
Assay: normalised viability (% of control), CellTiter-Blue; higher = more viable cells (100 = DMSO, 0 = benzethonium chloride kill control)
Conditions: incubation time: 72 h
In this section, each of the molecules is paired with its reported normalised viability.

Examples from the recorded data:
Ask: Hello, please tell me recorded normalised viability for this one: CC[C@]1(O)C[C@@H]2CN(CCc3c([nH]c4ccccc34)[C@@](C(=O)OC)(c3cc4c(cc3OC)N(C)[C@H]3[C@@](O)(C(=O)OC)[C@H](OC(C)=O)[C@]5(CC)C=CCN6CC[C@]43[C@@H]65)C2)C1 [Vinblastine] (0.1 nM)
Result: 98.5%

Ask: Hello, please tell me recorded normalised viability for this one: CN(C)C/C=C/C(=O)Nc1cc2c(Nc3ccc(F)c(Cl)c3)ncnc2cc1O[C@H]1CCOC1 [Afatinib] (1 nM)
Result: 101%

Ask: Hello, please tell me recorded normalised viability for this one: Clc1ccc(C(c2ccccc2Cl)C(Cl)Cl)cc1 (stereo not given) [Mitotane] (1 nM)
Result: 107%

Ask: Hello, please tell me recorded normalised viability for this one: CN1CCC(COc2cnc(-c3cccc(Cn4nc(-c5cccc(C#N)c5)ccc4=O)c3)nc2)CC1 (1 nM)
Result: 104%

Please find the next molecule below.
Ask: Hello, please tell me recorded normalised viability for this one: Cc1ccc(F)c(NC(=O)Nc2ccc(-c3cccc4[nH]nc(N)c34)cc2)c1 [Linifanib] (0.1 nM)
Result: 112%

* * *

Tested on: CAL-85-1
Settings: 72 h
In this section, each of the molecules is paired with its reported EC50, CellTiter-Blue viability.
Write it as a number; the unit nM goes unstated.

Ask: Hello, please tell me recorded EC50, CellTiter-Blue viability for this one: Cc1c2oc3c(C)ccc(C(=O)N[C@@H]4C(=O)N[C@H](C(C)C)C(=O)N5CCC[C@H]5C(=O)N(C)CC(=O)N(C)[C@@H](C(C)C)C(=O)O[C@@H]4C)c3nc-2c(C(=O)N[C@@H]2C(=O)N[C@H](C(C)C)C(=O)N3CCC[C@H]3C(=O)N(C)CC(=O)N(C)[C@@H](C(C)C)C(=O)O[C@@H]2C)c(N)c1=O
Result: 2.03

Ask: Hello, please tell me recorded EC50, CellTiter-Blue viability for this one: COc1cccc2c1C(=O)c1c(O)c3c(c(O)c1C2=O)C[C@@](O)(C(=O)CO)C[C@@H]3O[C@H]1C[C@H](N)[C@H](O)[C@H](C)O1
Result: 279

Ask: Hello, please tell me recorded EC50, CellTiter-Blue viability for this one: COc1cccc2cc(-c3nc([C@H]4CC[C@H](C(=O)O)CC4)n4ncnc(N)c34)[nH]c12
Result: 1180

Ask: Hello, please tell me recorded EC50, CellTiter-Blue viability for this one: CO[C@H]1C[C@@H]2CC[C@@H](C)[C@@](O)(O2)C(=O)C(=O)N2CCCC[C@H]2C(=O)O[C@H]([C@H](C)C[C@@H]2CC[C@@H](OC(=O)C(C)(CO)CO)[C@H](OC)C2)CC(=O)[C@H](C)/C=C(\C)[C@@H](O)[C@@H](OC)C(=O)[C@H](C)C[C@H](C)/C=C/C=C/C=C/1C
Result: 0.11

* * *

System: SK-BR-3
Test: drug sensitivity score (DSS), CellTiter-Blue viability (DSS (AUC-based score)); higher = stronger viability inhibition; extreme values may be limits of the assay
Details: incubation time: 72 h
In this section, each of the molecules is paired with its reported drug sensitivity score.
# print the numeric value only

Ask: Hello, please tell me recorded drug sensitivity score for this one: C[C@]1(c2nc3c(C(N)=O)cccc3[nH]2)CCCN1
Result: 0

Ask: Hello, please tell me recorded drug sensitivity score for this one: Cc1c2oc3c(C)ccc(C(=O)N[C@@H]4C(=O)N[C@H](C(C)C)C(=O)N5CCC[C@H]5C(=O)N(C)CC(=O)N(C)[C@@H](C(C)C)C(=O)O[C@@H]4C)c3nc-2c(C(=O)N[C@@H]2C(=O)N[C@H](C(C)C)C(=O)N3CCC[C@H]3C(=O)N(C)CC(=O)N(C)[C@@H](C(C)C)C(=O)O[C@@H]2C)c(N)c1=O
Result: 28.9

Ask: Hello, please tell me recorded drug sensitivity score for this one: CC[C@]1(O)C[C@@H]2CN(CCc3c([nH]c4ccccc34)[C@@](C(=O)OC)(c3cc4c(cc3OC)N(C)[C@H]3[C@@](O)(C(=O)OC)[C@H](OC(C)=O)[C@]5(CC)C=CCN6CC[C@]43[C@@H]65)C2)C1
Result: 35.2

Ask: Hello, please tell me recorded drug sensitivity score for this one: CN(C)C/C=C/C(=O)Nc1cc2c(Nc3ccc(F)c(Cl)c3)ncnc2cc1O[C@H]1CCOC1
Result: 31.5

Ask: Hello, please tell me recorded drug sensitivity score for this one: Nc1nc(Cl)nc2c1ncn2[C@H]1C[C@H](O)[C@@H](CO)O1
Result: 1.21

Ask: Hello, please tell me recorded drug sensitivity score for this one: CN1CC[C@H](c2c(O)cc(O)c3c(=O)cc(-c4ccccc4Cl)oc23)[C@H](O)C1
Result: 23.9
